Cited source for all entries: PubChem BioAssay (NCI)

- Test: NCI Yeast Anticancer Drug Screen. Data for the bub3 strain (AID 167)
- Measurement Parameters: S. cerevisiae bub3 mutant strain, at 50.0 µM, hits give high values
The panel holds about 79,000 compounds, 15% with a hit somewhere; the sample as a whole holds those more often.
Metric Name: growth inhibition (%)
Express the result in % but write the number alone.

The examples below pair each entry with its known result.
[Mg]=[Se] : 6
C=C1CC2CC[C@@]34CC5O[C@@H]6C(O[C@H]7CC[C@H](CC(=O)OC8C(C)C9OC%10C[C@]%11(C[C@@H]%12O[C@]%13(CC(C)[C@@H]%14O[C@H](C(O)CC(O)CO)C[C@@H]%14O%13)CC(C)[C@@H]%12O%11)OC%10CC9O[C@H]8C[C@H]8OC(CC[C@@H]1O2)C[C@@H](C)C8=C)OC7[C@@H]6O3)[C@H]5O4 (stereo partly specified) : 91.1
CN(CC(N)=O)C(=O)N(CCCl)N=O : 1.55

Request: Using the record for CCC(C)C(CC)C(=O)NC(N)=O (stereo unspecified) , report its growth inhibition.
Result: 8.5

Request: Note, next up: "CC(C)CCC1(CCSC(=O)S)C(=O)NC(=O)NC1=O"
Result: 19.8

Request: // repeat for COC1OC(CO)C(O)C(O)[CH]1[Hg][Cl] (stereo unspecified) and report
Result: 98.8

Request: Now give it for O=C(O)C1C2Cc3ccccc3C21 (stereo unspecified) too.
Result: -20.3

Request: Continue with "CC[PH+](CC)CC.[Cl][Au]"
Result: 89.8

Request: Follow-up item: "O=S(=O)(F)c1cc(Cl)c(S)cc1Cl"
Result: -1.55
